tested on: Pseudomonas fluorescens; test: Antibacterial activity against Pseudomonas fluorescens NCIB 3756 after 24 hrs by agar well diffusion method; format: functional; also: test concentration or dose not given here
inhibition zone (IZ) by entry:
Your answer is read as mm, so omit the unit and give the number.

// below: answered compounds
compound="CC12CCC(C/C1=N\\Nc1nc3ccccc3[nH]c1=O)C2(C)C (stereo not drawn)" assay_result=0
compound=CC(C)=NNc1nc2ccccc2[nH]c1=O assay_result=0
compound=O=C1Nc2ccc(Br)cc2/C1=N/Nc1nc2ccccc2[nH]c1=O assay_result=11
compound=C/C(=N\Nc1nc2ccccc2[nH]c1=O)c1cc2cc(C)ccc2oc1=O assay_result=0
compound=C/C(=N\Nc1nc2ccccc2[nH]c1=O)c1cc2cc(Br)ccc2oc1=O assay_result=0

Please fill in: inhibition zone (IZ) reported for CC/C(C)=N\Nc1nc2ccccc2[nH]c1=O = 0

Please fill in: inhibition zone (IZ) reported for CN[C@@H]1[C@H](O[C@H]2[C@H](O[C@H]3[C@H](O)[C@@H](O)[C@H](N=C(N)N)[C@@H](O)[C@@H]3N=C(N)N)O[C@@H](C)[C@]2(O)C=O)O[C@@H](CO)[C@H](O)[C@H]1O = 30

Please fill in: inhibition zone (IZ) reported for O=c1[nH]c2ccccc2nc1NN=C1c2ccccc2Cc2ccccc21 = 0

---

inhibition zone (IZ) by entry:
tested on: Candida albicans; experiment: Antifungal activity against Candida albicans after 3 days by agar well diffusion method; format: functional

// below: answered compounds
compound=O=c1[nH]c2ccccc2nc1NN=C1CCCC1 assay_result="29 mm"
compound=O=c1[nH]c2ccccc2nc1NN=C1c2ccccc2Cc2ccccc21 assay_result="9 mm"
compound=CC(C)=NNc1nc2ccccc2[nH]c1=O assay_result="31 mm"
compound=Cc1ccc2c(c1)/C(=N/Nc1nc3ccccc3[nH]c1=O)C(=O)N2 assay_result="30 mm"

Please fill in: inhibition zone (IZ) reported for C/C(=N\Nc1nc2ccccc2[nH]c1=O)c1cc2cc(C)ccc2oc1=O = 10 mm

Please fill in: inhibition zone (IZ) reported for O=c1[nH]c2ccccc2nc1N/N=C1\CCCCC1Cl (stereo not drawn) = 15 mm

Please fill in: inhibition zone (IZ) reported for O=C1Nc2ccc(Br)cc2/C1=N/Nc1nc2ccccc2[nH]c1=O = 15 mm

---

system: Geobacillus stearothermophilus; assay: Antibacterial activity against Bacillus stearothermophilus NCIB 8222 after 72 hrs; type: functional; conditions: NCIB 8222, 72 h
READOUT TYPE: MIC (µg/mL)
Your answer is read as µg/mL, so omit the unit and give the number.

compound=NNc1nc2ccccc2[nH]c1=O assay_result=15.6
compound=O=C1Nc2ccc(Br)cc2/C1=N/Nc1nc2ccccc2[nH]c1=O assay_result=15.6
compound=C/C(=N\Nc1nc2ccccc2[nH]c1=O)c1cc2ccccc2oc1=O assay_result=31.3
compound=O=c1[nH]c2ccccc2nc1NN=C1CCCCC1 assay_result=31.3
compound=O=C1Nc2ccccc2/C1=N/Nc1nc2ccccc2[nH]c1=O assay_result=62.5

Let me check: C/C(=N\Nc1nc2ccccc2[nH]c1=O)c1cc2cc(C)ccc2oc1=O , system Geobacillus stearothermophilus, measured MIC is 31.3

Let me check: CC12CCC(C/C1=N\Nc1nc3ccccc3[nH]c1=O)C2(C)C (stereo not drawn) , system Geobacillus stearothermophilus, measured MIC is 31.3

Let me check: Cc1ccc2c(c1)/C(=N/Nc1nc3ccccc3[nH]c1=O)C(=O)N2 , system Geobacillus stearothermophilus, measured MIC is 62.5

Let me check: O=c1[nH]c2ccccc2nc1N/N=C1\CCCCC1Br (stereo not drawn) , system Geobacillus stearothermophilus, measured MIC is 31.3

Let me check: CC/C(C)=N\Nc1nc2ccccc2[nH]c1=O , system Geobacillus stearothermophilus, measured MIC is 31.3

Let me check: CN[C@@H]1[C@H](O[C@H]2[C@H](O[C@H]3[C@H](O)[C@@H](O)[C@H](N=C(N)N)[C@@H](O)[C@@H]3N=C(N)N)O[C@@H](C)[C@]2(O)C=O)O[C@@H](CO)[C@H](O)[C@H]1O , system Geobacillus stearothermophilus, measured MIC is 7.8

Let me check: O=c1[nH]c2ccccc2nc1N/N=C1\CCCCC1Cl (stereo not drawn) , system Geobacillus stearothermophilus, measured MIC is 31.3

Let me check: CC(C)=NNc1nc2ccccc2[nH]c1=O , system Geobacillus stearothermophilus, measured MIC is 7.8

---

system: Candida albicans; test: Antifungal activity against Candida albicans after 3 days by agar well diffusion method; format: functional
READOUT TYPE: inhibition zone (IZ) (mm)
Your answer is read as mm, so omit the unit and give the number.

// below: answered compounds
compound="CC12CCC(C/C1=N\\Nc1nc3ccccc3[nH]c1=O)C2(C)C (centres undefined)" assay_result=21
compound="CC1CCCC/C1=N\\Nc1nc2ccccc2[nH]c1=O (centres undefined)" assay_result=14
compound=O=C1Nc2ccc(Cl)cc2/C1=N/Nc1nc2ccccc2[nH]c1=O assay_result=18

Please turn your attention to the following entry.
Let me check: NNc1nc2ccccc2[nH]c1=O , system Candida albicans, measured inhibition zone (IZ) is 18

---

inhibition zone (IZ) by entry:
system: Bacillus subtilis; assay: Antibacterial activity against Bacillus subtilis NCIB 3610 after 24 hrs by agar well diffusion method; format: functional; also: test concentration or dose not given here
Your answer is read as mm, so omit the unit and give the number.

// below: answered molecules
molecule=C/C(=N\Nc1nc2ccccc2[nH]c1=O)c1cc2ccccc2oc1=O assay_result=32
molecule=O=C1Nc2ccc(Br)cc2/C1=N/Nc1nc2ccccc2[nH]c1=O assay_result=13

Please turn your attention to the following entry.
Let me check: CC12CCC(C/C1=N\Nc1nc3ccccc3[nH]c1=O)C2(C)C (stereo unspecified) , system Bacillus subtilis, measured inhibition zone (IZ) is 16

---

tested on: Bacillus subtilis; test: Antibacterial activity against Bacillus subtilis NCIB 3610 after 24 hrs by agar well diffusion method; format: functional; also: test concentration or dose not given here
inhibition zone (IZ) by entry:
Note to self: number, then unit, no commentary.

// below: answered compounds
compound=O=C1Nc2ccc(Cl)cc2/C1=N/Nc1nc2ccccc2[nH]c1=O readout_type="inhibition zone (IZ)" assay_result="20 mm"
compound=CCC(CC)=NNc1nc2ccccc2[nH]c1=O readout_type="inhibition zone (IZ)" assay_result="20 mm"

Please turn your attention to the following entry.
Please fill in: inhibition zone (IZ) reported for O=c1[nH]c2ccccc2nc1N/N=C1\CCCCC1Br (stereo not drawn) = 20 mm

---

tested on: Bacillus subtilis; assay: Antibacterial activity against Bacillus subtilis NCIB 3610 after 24 hrs by agar well diffusion method; type: functional; also: test concentration or dose not given here
READOUT TYPE: inhibition zone (IZ) (mm)
Your answer is read as mm, so omit the unit and give the number.

// below: answered compounds
compound=O=c1[nH]c2ccccc2nc1NN=C1CCCC1 measured_target="Bacillus subtilis" readout_type="inhibition zone (IZ)" assay_result=12
compound=O=c1[nH]c2ccccc2nc1NN=C1c2ccccc2Cc2ccccc21 measured_target="Bacillus subtilis" readout_type="inhibition zone (IZ)" assay_result=12

Please fill in: inhibition zone (IZ) reported for CC1CCCC/C1=N\Nc1nc2ccccc2[nH]c1=O (stereo not drawn) = 12
